System: EW-1;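 further: growth inhibition of the human EW-1 cell line, read out by a cell viability assay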
assay.explanation: cells
Assay type: functional, cell-based, Homo sapiens
experimental.conditions: ew-1
Description: SANGER: Inhibition of human EW-1 cell growth in a cell viability assay.
assay.readout: IC50 (nM)
Form entry: value (nM) — number only.

Readout IC50 for `BLEOMYCIN` , test system EW-1, was 1820

* * *

System: T47D;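 further: growth inhibition of human T47D cells, measured with a cell viability assay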
assay.explanation: cells
Assay type: functional, cell-based, Homo sapiens
experimental.conditions: Homo sapiens, T47D
Description: SANGER: Inhibition of human T47D cell growth in a cell viability assay.
assay.readout: IC50 (µM)
Form entry: value (µM) — number only.

Reported IC50 of `CN(C)C(=N)NC(=N)N` : 19900

Reported IC50 of `CO[C@H]1C[C@@H]2CC[C@@H](C)[C@@](O)(O2)C(=O)C(=O)N2CCCC[C@H]2C(=O)O[C@H]([C@H](C)C[C@@H]2CC[C@@H](OC(=O)C(C)(CO)CO)[C@H](OC)C2)CC(=O)[C@H](C)/C=C(\C)[C@@H](O)[C@@H](OC)C(=O)[C@H](C)C[C@H](C)/C=C/C=C/C=C/1C` : 0.107

* * *

Consider the following molecules; for each one, report its pIC50.
Test system: LOX IMVI
assay.explanation: cells
Format: functional, cell-based, Homo sapiens
experimental.conditions: Homo sapiens, LOX IMVI
Description: SANGER: Inhibition of human LOXIMVI cell growth in a cell viability assay.
pIC50: −log10 of the molar value.

Reported pIC50 of Nc1cccc2c1CN(C1CCC(=O)NC1=O)C2=O (stereo not drawn) [LENALIDOMIDE] : < 5.30

Reported pIC50 of CC[C@H](CO)Nc1nc(NCc2ccccc2)c2ncn(C(C)C)c2n1 [SELICICLIB] : < 4.80

Reported pIC50 of `Oc1ccc2ccccc2c1SSc1c(O)ccc2ccccc12` : < 4.49

Reported pIC50 of CCN(CC)CCNC(=O)c1c(C)[nH]c(/C=C2\C(=O)Nc3ccc(F)cc32)c1C [SUNITINIB] : < 5.10

Reported pIC50 of N[C@@H](CSC(c1ccccc1)(c1ccccc1)c1ccccc1)C(=O)O [S-TRITYL-L-CYSTEINE] : < 5.29

Reported pIC50 of `COc1cc(-c2nn([C@H]3CC[C@H](N4CCN(C(C)=O)CC4)CC3)c3ncnc(N)c23)ccc1NC(=O)c1cc2ccccc2n1C` : < 5.29

Reported pIC50 of COc1cc2ncn(-c3cc(OCc4ccccc4S(C)(=O)=O)c(C#N)s3)c2cc1OC [GSK-319347A] : < 5.30

Reported pIC50 of COc1cc2ncn(-c3cc(OCc4ccccc4C(F)(F)F)c(C(N)=O)s3)c2cc1OC [GW843682X] : 6.90

* * *

Tested on: ES5
assay.explanation: cells
Type: functional, cell-based, Homo sapiens
experimental.conditions: Homo sapiens, ES5
Description: SANGER: Inhibition of human ES5 cell growth in a cell viability assay.
pIC50: −log10 of the molar value.
Consider the following molecules; for each one, report its pIC50.

Reported pIC50 of `COc1cc2c(Nc3ccc(NC(=O)c4ccccc4)cc3)ncnc2cc1OCCCN1CCOCC1` : 6.00

Reported pIC50 of `COc1cc(N2CCN(C)CC2)ccc1Nc1ncc2c(n1)N(C)c1ccccc1C(=O)N2C` : < 5.10

Reported pIC50 of `CC[C@H](CO)Nc1nc(NCc2ccccc2)c2ncn(C(C)C)c2n1` : < 4.80

Reported pIC50 of `C#Cc1cccc(Nc2ncnc3cc(OCCOC)c(OCCOC)cc23)c1` : < 5.70

* * *

Tested on: SW626
assay.explanation: cells
Format: functional, cell-based, Homo sapiens
experimental.conditions: Homo sapiens, SW626
Description: SANGER: Inhibition of human SW626 cell growth in a cell viability assay.
pIC50: −log10 of the molar value.
Consider the following compounds; for each one, report its pIC50.

Reported pIC50 of `CCN(CC)CCCCNc1ncc2cc(-c3cc(OC)cc(OC)c3)c(NC(=O)NC(C)(C)C)nc2n1` : < 5.70

Reported pIC50 of `CCC/C=C/C=C/C(=O)O[C@H]1/C(=C/C(=O)OC)C[C@H]2C[C@H]([C@@H](C)O)OC(=O)C[C@H](O)C[C@@H]3C[C@H](OC(C)=O)C(C)(C)[C@](O)(C[C@@H]4C/C(=C/C(=O)OC)C[C@H](/C=C/C(C)(C)[C@]1(O)O2)O4)O3` : < 8.10

Reported pIC50 of `CN(C)C(=N)NC(=N)N` : < 1.70

Reported pIC50 of CC(C)CCN1c2nc(Nc3cc(F)c(O)c(F)c3)ncc2N(C)C(=O)C1C (stereo not given) : 5.31

Reported pIC50 of `C=C(c1ccc(C(=O)O)cc1)c1cc2c(cc1C)C(C)(C)CCC2(C)C` : < 5.10
